Reference source for all entries: a melting point compilation (Tetko et al.; mined from patent text by program, amines drawn as free bases though some values may be those of a salt)

Measured melting point values are reported for all entries that follow.

Task: Sample O=C1c2ccccc2C(O)N1CCCBr (stereo not given) — what was its melting point?
Result: 79 °C

Task: Sample CCOC(=O)c1cc(=O)c2c(OCC(C)(O)Oc3ccc(Br)cc3)cccc2o1 (stereo not given) — what was its melting point?
Result: 79 to 80 °C

Task: Sample Cc1c(C)c2c(c(C)c1N)CC(C)(CNCCN1CCCCC1)O2 (stereo not given) — what was its melting point?
Result: 102 to 104 °C

Task: Sample CN(C(=O)c1ccc(-c2ccccc2)cc1)C1N(C)C(c2ccc(F)cc2)=NC1(C(F)(F)F)C(F)(F)F (stereo not given) — what was its melting point?
Result: 186 to 187 °C

Task: Sample `CCOC(=O)C(C)=CC=CC(C)=CC=CC=C(C)C=CC=C(C)C1OCC(C)(C)CO1` — what was its melting point?
Result: 158 °C

***
Task: Sample `CCNc1nc(C)c(-c2ccnc(Nc3ccc(N4CCSCC4)cc3)n2)s1` — what was its melting point?
Result: 207 to 209 °C

Task: Sample `Cn1c(=O)oc2cc(CCN3CCN(c4ccc(F)cc4)CC3)ccc21` — what was its melting point?
Result: 161 to 164 °C

Task: Sample `CCOC(=O)c1c(C)nc(N2CCN(C)CC2)c([N+](=O)[O-])c1Cl` — what was its melting point?
Result: 59 to 61 °C

Task: Sample `CCOC(=O)Cc1c(C)n(Cc2cccc(OC)c2)c2ccc(OC)cc12` — what was its melting point?
Result: 88 to 90 °C

Task: Sample CCCCC(NC(=O)OCc1ccccc1)C(=O)Nc1n[nH]c(=S)s1 (stereo not given) — what was its melting point?
Result: 169 to 171 °C
